Some binders, each annotated with its measured kon.
Target: T1, rat serum albumin (rat)
T1 chain: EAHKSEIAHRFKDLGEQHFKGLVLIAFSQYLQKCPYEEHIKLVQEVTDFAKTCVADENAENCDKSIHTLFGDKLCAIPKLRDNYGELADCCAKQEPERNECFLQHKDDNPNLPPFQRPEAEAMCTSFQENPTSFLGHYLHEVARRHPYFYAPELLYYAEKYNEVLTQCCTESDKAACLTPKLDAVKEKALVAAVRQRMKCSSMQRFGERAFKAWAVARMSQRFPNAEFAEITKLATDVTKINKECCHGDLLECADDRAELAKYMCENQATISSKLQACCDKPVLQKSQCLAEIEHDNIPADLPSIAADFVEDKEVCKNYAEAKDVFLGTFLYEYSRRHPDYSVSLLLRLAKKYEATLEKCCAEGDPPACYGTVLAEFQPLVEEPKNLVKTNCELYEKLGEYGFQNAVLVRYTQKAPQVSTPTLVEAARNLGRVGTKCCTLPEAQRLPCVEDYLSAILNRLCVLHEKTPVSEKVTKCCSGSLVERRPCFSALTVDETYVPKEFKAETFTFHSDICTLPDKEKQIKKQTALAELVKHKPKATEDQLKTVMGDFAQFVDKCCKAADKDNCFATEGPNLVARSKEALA
Experiment: SPR Biacore T200, fusion protein captured by anti-VHH antibody, albumin as analyte
Description: Coupling of an anti-VHH antibody (MonoRab™ Rabbit Anti-Camelid VHH Cocktail, Genescript, Cat No. A02014) to an S series CM5 sensor chip (GE, Cat No. 29-1049-88) was performed using an amino coupling kit (GE, Cat No. BR-1000-50). The antibody was diluted to 10 μg/mL with 10 mM sodium acetate (pH 4.5) (GE, Cat No. BR-1003-50). […]
All answers are understood in M⁻¹ s⁻¹, so give the number only.

[[record]]
binder = "0054 (other, also called positive control 0054; positive control molecule 0054) EVQLLESGGGLVQPGGSLRLSCAASGRYIDETAVAWFRQAPGKGREFVAGIGGGVDITYYADSVKGRFTISRDNSKNTLYLQMNSLRPEDTAVYYCAARPGRPLITSKVADLYPYWGQGTLVTVSSGGGGQGGGGQGGGGQGGGGQGGGGQSWMEEVIKLCGRELVRAQIAICGMSTWSGGGSGGSGGGQLYSALANKCCHVGCTKRSLARFC"
units_of_measure = "M⁻¹ s⁻¹"
recorded_measurement = 61500


Suppose we examine the binder 0065 (other, Single-chain fusion: anti-HSA VHH, linker, relaxin-2 B chain, linker, relaxin-2 A chain; also called fusion protein 0065) EVQLLESGGGLVQPGGSLRLSCAASGFTFLTSCMGWFRQAPGKEREGVSSIYTVGGSTFYTNSVKGRFTISRDNSKNTLYLQMNSLRPEDTAVYYCAAGSPARCRLRDPTTFDYWGQGTLVTVSSGGGGQGGGGQGGGGQGGGGQGGGGQSWMEEVIKLCGRELVRAQIAICGMSTWSGGGSGGSGGGQLYSALANKCCHVGCTKRSLARFC ; what kon value has been reported?
35700

Then this binder: 0051 (other, Single-chain fusion: anti-HSA VHH, linker, relaxin-2 B chain, linker, relaxin-2 A chain; also called fusion protein 0051; molecule 0051) EVQLLESGGGLVQPGGSLRLSCAASGFTFLTSCMGWFRQAPGKEREGVSSIYTVGGSTFYTNSVKGRFTISRDNSKNTLYLQMNSLRAEDTAVYYCAAGSPARCRLRDPTTFDYWGQGTLVTVSSGGGGQGGGGQGGGGQGGGGQGGGGQSWMEEVIKLCGRELVRAQIAICGMSTWSGGGSGGSGGGQLYSALANKCCHVGCTKRSLARFC
37200

Then this binder: 0052 (other, Single-chain fusion: anti-HSA VHH, linker, relaxin-2 B chain, linker, relaxin-2 A chain; also called fusion protein 0052) EVQLLESGGGLVQPGGSLRLSCAASGFTFLTSCMGWFRQAPGKEREGVSSIYTVGGSTFYTNSVKGRFTISRDNSKNTLYLQMNSLRAEDTAVYYCAAGSPARCRLRDPTTFDYWGQGTLVTVSSPGPAPGPAPGPAPGPAPGPAPGPAPGPAPGPASWMEEVIKLCGRELVRAQIAICGMSTWSGGGSGGSGGGQLYSALANKCCHVGCTKRSLARFC
41300
